tested on: Polyunsaturated fatty acid lipoxygenase ALOX12 (Homo sapiens) (UniProt P18054)
Sequence (P18054 whole entry, looked up): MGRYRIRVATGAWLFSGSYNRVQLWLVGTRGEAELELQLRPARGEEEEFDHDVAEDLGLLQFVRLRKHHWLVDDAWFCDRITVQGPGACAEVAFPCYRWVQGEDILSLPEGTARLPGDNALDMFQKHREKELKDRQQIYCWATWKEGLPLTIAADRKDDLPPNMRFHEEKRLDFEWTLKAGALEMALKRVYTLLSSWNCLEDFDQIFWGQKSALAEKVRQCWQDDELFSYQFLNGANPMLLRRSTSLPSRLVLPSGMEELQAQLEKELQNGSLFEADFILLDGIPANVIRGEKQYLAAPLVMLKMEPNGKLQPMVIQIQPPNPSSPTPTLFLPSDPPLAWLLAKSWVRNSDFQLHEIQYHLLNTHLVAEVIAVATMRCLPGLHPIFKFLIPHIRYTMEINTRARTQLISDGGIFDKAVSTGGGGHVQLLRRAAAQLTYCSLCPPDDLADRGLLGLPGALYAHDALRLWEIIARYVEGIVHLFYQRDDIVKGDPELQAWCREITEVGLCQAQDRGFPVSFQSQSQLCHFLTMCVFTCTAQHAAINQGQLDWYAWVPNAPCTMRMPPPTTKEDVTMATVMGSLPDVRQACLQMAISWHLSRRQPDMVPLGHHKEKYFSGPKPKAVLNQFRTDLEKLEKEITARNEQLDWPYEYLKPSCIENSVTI
test protocol: Primary qHTS assay for inhibitors of human arachidonate 12S-lipoxygenase (ALOX12): Round 2; for activity change, negative = inhibition: % is set by controls: 0 for no effect and ±100 for the full control effect
conditions: purified 12hLO, xylenol orange hydroperoxide absorbance; series mostly up to 108 µM
Hit rate of the full screen: of about 580,000 compounds, about 6,100 (1.1%) were called active. Not shown: some 15% with an inconclusive outcome. The sample holds actives, similar compounds and a random draw of the others, so the mix is not that of the screen.
measurement type: activity change, negative = inhibition

Some entries whose results are on file:
>>> print(df.to_string())
                                   compound                        measurement_type                            val
0          Fc1ccc(OC2CN(Cc3cccnc3)C2)c(F)c1  activity change, negative = inhibition  10.3% [at 12.5 µM] (inactive)
1  Cc1noc(C)c1C(=O)N1CCCC2(Cc3ccccc3CN2C(=O)C2CCCC2)C1 (stereo unspecified)  activity change, negative = inhibition  2.72% [at 12.5 µM] (inactive)
2  Cc1cccc(CN2CCC3(Cc4ccccc4CNC3=O)C2)c1 (stereo unspecified)  activity change, negative = inhibition  3.12% [at 6.33 µM] (inactive)

Count: 3. Required value per item: activity change, negative = inhibition.
1. O=C(c1ccc2c(c1)OCO2)N1CCC2(C1)C(=O)Nc1ccccc12 (stereo unspecified)
2. COc1ccc(OC2CN(Cc3cccn3C)C2)cc1
3. O=C(Nc1ccccc1F)N1CC2CCC(C1)N2Cc1ccc(-c2cccnc2)cc1

Reply:
1. 5.73% [at 6.33 µM] (inactive)
2. 5.21% [at 12.5 µM] (inactive)
3. 0.675% [at 6.33 µM] (inactive)

====

tested on: Polyunsaturated fatty acid lipoxygenase ALOX12 (Homo sapiens)
test protocol: Primary qHTS assay for inhibitors of human arachidonate 12S-lipoxygenase (ALOX12): Round 2
conditions: purified 12hLO, xylenol orange hydroperoxide absorbance; series mostly up to 108 µM
Screen size: about 580,000 compounds; about 6,100 (1.1%) were called active. Another 15% or so got no clear call; they are omitted. Calls come from the whole dose curve; as a rule, active = well fitted inhibition curve with a large enough effect; inconclusive = small, poorly fitted or top-dose-only effect, or another doubt; inactive = no such curve, though single readings can be large or run the other way. The sample as a whole holds a higher share of actives than the screen did.
Your reply should match one of these outcome classes. True (active), False (inactive)

Known results for compounds:
>>> df
                                   compound  class_name
0  COc1ccc(Nc2nc3ccccc3nc2NS(=O)(=O)c2ccc(OC)cc2)cc1       False
1  COc1ccc(C2/C(=C(/O)c3ccc(OC(C)C)cc3)C(=O)C(=O)N2CCCN2CCOCC2)cc1 (stereo not given)       False

Ask: Write down the call the test reported for this compound. Item: COc1cccc(C2/C(=C(/O)c3ccc(F)cc3)C(=O)C(=O)N2CCN(C)C)c1 (stereo not given)
Reply: False

Ask: Lookup `COc1cccc(-c2nc(SCC(=O)Nc3nccs3)c(-c3ccc(Cl)cc3)[nH]2)c1`
Reply: False

Ask: Lookup `Cc1cccc(NC(=O)CSc2nc(-c3ccco3)cc(C(F)(F)F)n2)c1C`
Reply: False

Ask: Lookup `COc1ccc2c(C)c(-c3cccc4ccccc34)c(=O)oc2c1`
Reply: False

Ask: Lookup COc1ccc(/C(O)=C2/C(=O)C(=O)N(CC3CCCO3)C2c2ccc(OC)c(OC)c2)cc1 (stereo not given)
Reply: True

Ask: Lookup COc1ccc(/C(O)=C2\C(=O)C(=O)N(Cc3ccco3)C2c2ccc(OC)cc2OC)cc1 (stereo not given)
Reply: True

Ask: Lookup `COC(=O)C1=C(O)/C(=C/c2ccc(OCC(=O)Nc3ccccc3)cc2)N=C1C`
Reply: True

Ask: Lookup COCCN1CCCC(c2[nH]ccc2C(=O)NCCc2c[nH]c3ccccc23)C1 (stereo not given)
Reply: False

Ask: Lookup `COc1ccc(-c2nc3ccncc3[nH]2)cc1`
Reply: False

Ask: Lookup `CCCc1noc(-c2ccn3c(CNC(=O)c4ccc(N(C)C)cc4)nnc3c2)n1`
Reply: True

Ask: Lookup `O=C(Nc1ccc(Br)c2cccnc12)c1ccc(Cn2cc([N+](=O)[O-])cn2)o1`
Reply: True

Ask: Lookup Cc1ccc(CN2CCN(c3nc4ccccc4o3)CC2CCO)cc1 (stereo not given)
Reply: False

Ask: Lookup `C#CCNC(=O)CC[C@@H]1CNC(=O)[C@@H]2C[C@H](NC(=O)Nc3cccc(Cl)c3)CN12`
Reply: False

Ask: Lookup COCCN1C(=O)C(=O)/C(=C(/O)c2ccc(S(=O)(=O)N3CCOCC3)cc2)C1c1ccc(OC)c(OC)c1 (stereo not given)
Reply: False

Ask: Lookup Cc1ccc(C)c(NC(=O)N2CCCC2c2ccco2)c1 (stereo not given)
Reply: False

Ask: Lookup `Cc1cc(C)c2sc(NC(=O)c3ccc(S(=O)(=O)N4CCCC4)cc3)nc2c1`
Reply: False

Ask: Lookup `O=C(NCCc1ccccn1)c1nc(Cn2cc([N+](=O)[O-])cn2)no1`
Reply: False

Ask: Lookup `CCCn1c(-n2nc(C)cc2C)nc2c1c(=O)n(CCN1CCCCC1)c(=O)n2C`
Reply: False

====

tested on: Polyunsaturated fatty acid lipoxygenase ALOX12 (Homo sapiens) (UniProt P18054)
test protocol: Primary qHTS assay for inhibitors of human arachidonate 12S-lipoxygenase (ALOX12): Round 2; note: potency is the fitted concentration of half-maximal effect
conditions: purified 12hLO, xylenol orange hydroperoxide absorbance; series mostly up to 108 µM
In all, about 580,000 compounds went through this assay and about 6,100 (1.1%) were called active. Inconclusive results (about 15%) are left out. For the sample, actives were picked, then their nearest neighbours and some compounds at random.
measurement type: Potency

Some entries whose results are on file:
                                   compound  measurement_type               val
0  O=S(=O)(c1ccc2nc(N3CCN(c4cccc(Cl)c4)CC3)ccc2c1)N1CCCCC1           Potency          inactive
1  CC(NC(=O)CSc1ccc(F)c(F)c1)c1nc2ccccc2[nH]1 (configuration not stated)           Potency          inactive
2     Cc1cccc(-n2c(C)cc(/C=N/NC(N)=S)c2C)c1           Potency  44.7 µM (active)
3  O=C(Nc1ccc(Cl)cc1)c1csc(C(O)c2cccc(C(F)(F)F)c2)n1 (configuration not stated)           Potency  22.4 µM (active)
4  COc1cc(CN2C[C@@H](CO)[C@H](c3nc(C)no3)C2)ccc1F           Potency          inactive
5  O=C(CCC1NC(=O)c2ccccc2NC1=O)NC1CCCCCC1 (configuration not stated)           Potency          inactive
6  Cc1ccc(C(=O)Nc2ccc3c(N4CCCCC4)ncnc3c2)s1           Potency          inactive
7        Clc1ccc(-c2nc(-c3ccc(Br)o3)no2)cc1           Potency          inactive

Count: 6. Required value per item: Potency.
1. O=C(N/N=C/C=C/c1ccccc1)C1CC1(c1ccccc1)c1ccccc1 (configuration not stated)
2. Cc1cc(/C=N/NC(N)=O)c(C)n1C1CCCCC1
3. N#Cc1ccc(C(C(=O)NCc2ccccc2)n2c(=O)c(-c3ccco3)nc3ccccc32)cc1 (configuration not stated)
4. Cc1cccc(C)c1NC(=O)C(c1ccc(C(F)(F)F)cc1)n1c(=O)c(-c2ccco2)nc2ccccc21 (configuration not stated)
5. Cc1ccc(C2CC(=O)C3=C(C2)OC(N)=C(C#N)C32C(=O)Nc3ccccc32)cc1 (configuration not stated)
6. CCCCCCc1cc2c3c(c(=O)oc2cc1OCC(=O)C(C)(C)C)CCCC3

Reply:
1. inactive
2. inactive
3. 17.8 µM (active)
4. 14.1 µM (active)
5. inactive
6. inactive

Count: 7. Required value per item: Potency.
1. C=CCNC(=O)COc1coc(CN2CCN(Cc3ccccc3)CC2)cc1=O
2. O=C1CSc2ccc(C(=O)Nc3cccc(COC(=O)c4ccc5c(c4)NC(=O)CS5)c3)cc2N1
3. O=C(NN=CC=Cc1ccccc1)C(O)C(O)C(=O)NN=CC=Cc1ccccc1 (configuration not stated)
4. Cc1ccc(N/N=C/C=C/c2ccccc2)cc1Cl
5. CCC(C(=O)Nc1c(C)cccc1C)n1c(-c2cc(C)cs2)nc2ccccc21 (configuration not stated)
6. Cc1cc(S(=O)(=O)N2CCCC2c2nnc3ccccn23)ccc1Br (configuration not stated)
7. FC(F)(F)c1cccc(N/N=C/c2ccccc2)c1

Reply:
inactive
inactive
inactive
2.82 µM (active)
inactive
inactive
3.55 µM (active)

Ask: Report Potency for Cc1ccc(NC2(C#N)C(=O)Nc3ccccc32)cc1 (configuration not stated) please.
Reply: inactive

====

tested on: Polyunsaturated fatty acid lipoxygenase ALOX12 (Homo sapiens) (UniProt P18054)
test protocol: Primary qHTS assay for inhibitors of human arachidonate 12S-lipoxygenase (ALOX12): Round 2
conditions: purified 12hLO, xylenol orange hydroperoxide absorbance; series mostly up to 108 µM
Hit rate of the full screen: of about 580,000 compounds, about 6,100 (1.1%) were called active. Another 15% or so got no clear call; they are omitted. Calls come from the whole dose curve; as a rule, active = well fitted inhibition curve with a large enough effect; inconclusive = small, poorly fitted or top-dose-only effect, or another doubt; inactive = no such curve, though single readings can be large or run the other way. Shown is part of a subset that was picked to be rich in actives.
Your reply should match one of these outcome classes. true (1) for active, false (0) for inactive

Known results for compounds:
>>> df
                                   compound                                 tested_on  class_name
0  O=C(COC(=O)Cc1ccc(F)cc1)Nc1cc(S(=O)(=O)N2CCOCC2)ccc1N1CCCC1  Polyunsaturated fatty acid lipoxygenase ALOX12 (Homo sapiens) (UniProt P18054)   false (0)
1  CCOC(=O)CSc1nnc(NC(=O)C2CC(=O)N(c3ccc(F)cc3)C2)s1 (stereo unspecified)  Polyunsaturated fatty acid lipoxygenase ALOX12 (Homo sapiens) (UniProt P18054)    true (1)
2  O=C(Nc1ccccc1)Nc1cc(S(=O)(=O)N2CCOCC2)ccc1NCC1CCCO1 (stereo unspecified)  Polyunsaturated fatty acid lipoxygenase ALOX12 (Homo sapiens) (UniProt P18054)   false (0)
3                   CCc1sc(C(=O)NC(C)C)cc1C  Polyunsaturated fatty acid lipoxygenase ALOX12 (Homo sapiens) (UniProt P18054)   false (0)
4   Cc1cc(S(=O)(=O)N2CCCN(C)c3ccccc32)ccc1F  Polyunsaturated fatty acid lipoxygenase ALOX12 (Homo sapiens) (UniProt P18054)   false (0)

Ask: Write down the call the test reported for this compound. Item: `CCn1ncc(N2CCC(NC(=O)c3ccc(OC(C)C)cc3)CC2)cc1=O`
Reply: false (0)

Ask: Lookup `O=C(Nc1cccc(Br)c1)c1csc2c1CCCC2`
Reply: false (0)

Ask: Lookup `CC(C)CNC(=S)NNC(=O)c1nn(C)cc1Cl`
Reply: false (0)

Ask: Lookup `COc1ccc(-n2c(-c3ccc(OC)c(OC)c3)n[nH]c2=S)cc1`
Reply: true (1)

Ask: Lookup CC(C)c1ccc(C2/C(=C(\O)c3ccc4c(c3)OCCO4)C(=O)C(=O)N2c2nccs2)cc1 (stereo unspecified)
Reply: true (1)

Ask: Lookup `COCCNC(=S)Nc1cc(S(=O)(=O)N2CCOCC2)ccc1N1CCCCC1`
Reply: true (1)

Entry source: PubChem BioAssay AID1671190
